Reference source: the supplement of paper PMC9233669

In this section we review reported self-aminoacylation values for a set of sequences.
system: biotinyl-Leu-oxazolone; test: self-aminoacylation, catalytic enhancement (BLO) (fold over background); higher = more active; k-Seq, kA / k0A0; sequences stand for … in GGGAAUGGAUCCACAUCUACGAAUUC…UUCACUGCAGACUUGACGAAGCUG
Fewer inactive variants are shown than the library holds.

sequence.record	self-aminoacylation
AGUCACCUAGGUCCUCGGGUG [Fam2.2 aminoacylation ribozyme variant]	6.54
CUACGUCAGACAAUCGGUCUG [Fam1A.1 aminoacylation ribozyme variant]	1.28
CCACACUUCAAGCAUUCGGCC [Fam1B.1 aminoacylation ribozyme variant]	1.63
CUACUUCCAACAGUCGGUCUG [Fam1A.1 aminoacylation ribozyme variant]	0.971
AAGUUUGCUACUAGUCCCAAG [Fam3.1 aminoacylation ribozyme variant]	0.899
AUUCACCUAGGUCUUCGGGUC [Fam2.2 aminoacylation ribozyme variant]	2.37
AUUCAGCUUGGUCAUCGGGUG [Fam2.2 aminoacylation ribozyme variant]	3.63
AAUUUCGCUAAUAGUCGCAAG [Fam3.1 aminoacylation ribozyme variant]	2.24
AUUCAGCUACGUCAUCGGGUG [Fam2.2 aminoacylation ribozyme variant]	2.71
AUUCACGUAGGUAAUCGGGUG [Fam2.2 aminoacylation ribozyme variant]	5.06
AAGUUUGCUAAUAGUCGCGCG [Fam3.1 aminoacylation ribozyme variant]	4.77
CCACACUUAAAGCAAUCGGCC [Fam1B.1 aminoacylation ribozyme variant]	2.15
AAGGUUGCUAAUAGUCGCGAG [Fam3.1 aminoacylation ribozyme variant]	0.991
AUUACCCUAGUCAACGAGUGA [Fam2.1 aminoacylation ribozyme variant]	5.35
CUACAUCAAACAAUCGCUCUG [Fam1A.1 aminoacylation ribozyme variant]	0.89
CCACACUUCAAGCACUCGCUC [Fam1B.1 aminoacylation ribozyme variant]	2.39
CCACUUCAAACAAUCGGUCUA [Fam1A.1 aminoacylation ribozyme variant]	1.5
AUUGCCCUGGUCCUCGAGUGA [Fam2.1 aminoacylation ribozyme variant]	3.42

---

In this section we review reported self-aminoacylation values for a set of sequences.
system: biotinyl-Leu-oxazolone; experiment: self-aminoacylation, catalytic enhancement (BLO) (fold over background); higher = more active; k-Seq, kA / k0A0; sequences stand for … in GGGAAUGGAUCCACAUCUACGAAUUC…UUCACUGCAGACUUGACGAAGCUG
Fewer inactive variants are shown than the library holds.
attribute.measured: self-aminoacylation

sequence.record	reading
AUUCACCUAGGUUAUCGGAUG [Fam2.2 aminoacylation ribozyme variant]	0.673
CCACACAUCAAGCAAGCGGUC [Fam1B.1 aminoacylation ribozyme variant]	0.901
AUUCACCCAGGUCCUCGGGUG [Fam2.2 aminoacylation ribozyme variant]	6.67
AUUAACCGGGUCAUCGAGUGA [Fam2.1 aminoacylation ribozyme variant]	7.07
AUCACCCUGGUCAUCGAGUGU [Fam2.1 aminoacylation ribozyme variant]	21.5
CUACUUCCAGCAAUCGGUCUG [Fam1A.1 aminoacylation ribozyme variant]	1.04
AUGUCUGCUAAUAGUCGCAAG [Fam3.1 aminoacylation ribozyme variant]	1.74
AAGUUUUCUAAUAGUAGCAAG [Fam3.1 aminoacylation ribozyme variant]	1.33
CCACACUUCAAGCAAUCGGAU [Fam1B.1 aminoacylation ribozyme variant]	0.789
